Molecular target: T1, human IL-36R on cells (human, UniProt Q9HB29 20-575)
T1 sequence (looked up): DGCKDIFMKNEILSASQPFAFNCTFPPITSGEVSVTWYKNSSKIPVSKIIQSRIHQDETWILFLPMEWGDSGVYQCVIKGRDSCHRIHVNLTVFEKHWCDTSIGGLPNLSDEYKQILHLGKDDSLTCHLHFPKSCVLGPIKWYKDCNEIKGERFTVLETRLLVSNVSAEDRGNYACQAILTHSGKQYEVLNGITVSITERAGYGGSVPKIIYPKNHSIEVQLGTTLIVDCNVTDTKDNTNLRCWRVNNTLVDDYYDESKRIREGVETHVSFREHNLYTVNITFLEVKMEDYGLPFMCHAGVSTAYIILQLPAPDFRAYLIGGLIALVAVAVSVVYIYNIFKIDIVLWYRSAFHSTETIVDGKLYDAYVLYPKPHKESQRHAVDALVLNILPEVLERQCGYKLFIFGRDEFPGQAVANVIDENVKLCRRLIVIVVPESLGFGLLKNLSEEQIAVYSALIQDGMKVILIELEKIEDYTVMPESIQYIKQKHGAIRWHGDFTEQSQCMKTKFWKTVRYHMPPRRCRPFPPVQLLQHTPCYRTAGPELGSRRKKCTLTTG
Experiment: cell-based or functional assay
result.type: IC90, IL-8 release, NCI/ADR-RES cells, trun-IL-36b (nM)
Write the answer as a number in nM, unit excluded.

Field IC90, IL-8 release, NCI/ADR-RES cells, trun-IL-36b (entry antibody 78C8 (antibody, V domains shown, Mouse monoclonal from hybridoma; also called 78C8D1; Mouse 78C8) VH: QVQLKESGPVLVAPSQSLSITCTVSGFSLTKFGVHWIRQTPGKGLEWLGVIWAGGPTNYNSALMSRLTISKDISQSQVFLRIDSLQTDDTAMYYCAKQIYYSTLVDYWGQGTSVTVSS VL: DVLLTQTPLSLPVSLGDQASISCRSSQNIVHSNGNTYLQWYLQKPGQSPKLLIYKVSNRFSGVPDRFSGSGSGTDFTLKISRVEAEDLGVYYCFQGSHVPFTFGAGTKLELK ) reads 1.1

Recorded values, source patent US20200231684A1.
